Numbers sourced from patent US20230048132A1.

System: LXFA A549
test_protocol: 2D cell proliferation assay (CellTiter-Blue)
Format: cell-based
assay_context: Homo sapiens, 72 h, three days of treatment, read-out: abs. IC50
measured_parameter: IC50 (nM)

These recorded examples may help you get a feel for the data.
                              smiles_record  target_system  quantitative_readout
0  CN1CCN(c2ccc(Nc3ncc4c(n3)N(C3CCCC3)C(=O)[C@]3(CCNC3=O)C4)cc2)CC1      LXFA A549                  1290
1  CC(C)N1CCN(c2ccc(Nc3ncc4c(n3)N(C3CCCC3)C(=O)[C@]3(CCNC3=O)C4)cc2)CC1      LXFA A549                   148

A = CC(C)N1CCN(c2ccc(Nc3ncc4c(n3)N(C3CCCC3)C(=O)[C@]3(CCNC3=O)C4)nc2)CC1
B = CC(C)N1CCN(c2ccc(Nc3ncc4c(n3)N(C3CCCC3)C(=O)[C@]3(CCNC3=O)C4)cc2F)CC1
*Q* Given the two records A and B , choose the one whose IC50 value is lower. Output the label that corresponds to your choice.
*A* B
(B: 1400 nM, A: 79200 nM)

====

Measured IC50 by item
Test system: LEXFCL MEC-1
test_protocol: 2D cell proliferation assay (CellTiter-Blue)
Type: cell-based
assay_context: Homo sapiens, MEC1, 72 h, three days of treatment, read-out: abs. IC50
// return numeric value only (unit: µM, not printed)

In [3]: df
Out[3]:
                                   compound  measured_parameter  value_units  quantitative_readout
0  CN(C)[C@H]1CCN(c2ccc(Nc3ncc4c(n3)N(C3CCCC3)C(=O)[C@]3(CCNC3=O)C4)nc2)C1 [Example D178]                IC50           µM                    37
1  CC(C)N1CCN(c2ccc(Nc3ncc4c(n3)N(C3CCCC3)C(=O)[C@]3(CCNC3=O)C4)nc2)CC1 [Example D154]                IC50           µM                   9.7
2  CN(C)CCOc1ccc(Nc2ncc3c(n2)N(C2CCCC2)C(=O)[C@]2(CCNC2=O)C3)cc1 [Example D179]                IC50           µM                 0.447

*Q* Form field: reported IC50 of O=C1NCC[C@@]12Cc1cnc(Nc3ccc(N4CCNCC4)cc3F)nc1N(C1CCCC1)C2=O [Example D146]
*A* 0.142

====

target_system: CDK2-CYCLINA (Homo sapiens)
Construct: purchased Millipore
test_protocol: CDK inhibition assay (microfluidic LabChip, IC50 format)
Assay type: biochemical
assay_context: Table 4b, lower part; read-out: CDK2 CyclinA IC50
measured_parameter: IC50 (nM)

I = CC(C)c1ccc(Nc2ncc3c(n2)N(C2CCCC2)C(=O)[C@]2(CCNC2=O)C3)cc1F
II = O=C1NCC[C@@]12Cc1cnc(Nc3ccc(N4CCC(N5CCOCC5)CC4)cn3)nc1N(C1CCCC1)C2=O
III = CN1CC2(C1)CN(c1ccc(Nc3ncc4c(n3)N(C3CCCC3)C(=O)[C@]3(CCNC3=O)C4)cc1F)C2
IV = CS(=O)(=O)N1CCC(Nc2ncc3c(n2)N(C24CC(C2)C4)C(=O)[C@]2(CCNC2=O)C3)CC1
V = CC(C)N1CCC(Nc2ncc3c(n2)N(C2CCCC2)C(=O)[C@]2(CCNC2=O)C3)CC1
*Q* List items by IC50 in falling order. State the ranking by listing the labels in the requested order.
*A* II, V, I, III, IV

a = CC1CN(c2ccc(Nc3ncc4c(n3)N(C3CCCC3)C(=O)[C@]3(CCNC3=O)C4)cc2)CC(C)N1 (stereo partly shown)
b = CC(C)C1CCN(c2ccc(Nc3ncc4c(n3)N(C3CCCC3)C(=O)[C@]3(CCNC3=O)C4)cc2)CC1
*Q* Parameter check: reported IC50 is higher for which label, a or b ? Output the label that corresponds to your choice.
*A* b
(b: 424 nM, a: 74.6 nM)
